- Test target: adenosine deaminase (Bos taurus, UniProt P56658)
- Sequence (P56658 whole entry): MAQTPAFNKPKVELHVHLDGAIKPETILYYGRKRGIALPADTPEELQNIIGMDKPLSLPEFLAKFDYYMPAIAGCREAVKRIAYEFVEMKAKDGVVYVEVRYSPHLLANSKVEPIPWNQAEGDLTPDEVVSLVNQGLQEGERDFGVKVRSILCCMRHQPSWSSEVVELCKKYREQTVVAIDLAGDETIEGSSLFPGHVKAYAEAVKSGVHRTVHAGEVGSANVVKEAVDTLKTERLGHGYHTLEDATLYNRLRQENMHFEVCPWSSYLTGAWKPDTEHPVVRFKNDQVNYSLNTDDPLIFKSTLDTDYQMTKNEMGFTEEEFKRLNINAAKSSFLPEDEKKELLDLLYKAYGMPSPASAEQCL
- Protocol summary: Adenosine deaminase resistance (remaining compound measured by HPLC)
- Experimental setup: 0 minute; 5 mM compound in 0.05 M Tris-HCl buffer (pH 7.2); adenosine deaminase (calf intestine); 25°C
Assay metric: Percent remainder 0 minute
Please provide the amount together with its unit, number first.

Consider the compound shown here: CC(O)C1=C[C@@H](n2cnc3c(N)ncnc32)[C@H](O)[C@@H]1O (stereo partly shown) [6'-C-Methylneplanocin A, 6'-C-methylneplanocin A] What is its recorded Percent remainder 0 minute?
100%

Consider the compound shown here: CCC(O)C1=C[C@@H](n2cnc3c(N)ncnc32)[C@H](O)[C@@H]1O (stereo partly shown) [6'-C-Ethylneplanocin A, 6'-C-ethylneplanocin A] What is its recorded Percent remainder 0 minute?
100%

Consider the compound shown here: Nc1ncnc2c1ncn2[C@@H]1C=C(CO)[C@@H](O)[C@H]1O [Neplanocin A] What is its recorded Percent remainder 0 minute?
100%

Consider the compound shown here: C#CC(O)C1=C[C@@H](n2cnc3c(N)ncnc32)[C@H](O)[C@@H]1O (stereo partly shown) [6'-C-Ethynylneplanocin A, 6'-C-ethynylneplanocin A] What is its recorded Percent remainder 0 minute?
100%
